// Comparative binding affinity - Fold increase over parent lookup, one value per entry
Target: T1, hu-MCSP(D3 domain)-avi-his (human, UniProt Q6UVK1 1582-2224, biotinylated where used for selection or for coupling to the SA chip)
T1 construct: also called human MCSP(D3 domain)-avi-his; human MCSP D3
T1 sequence: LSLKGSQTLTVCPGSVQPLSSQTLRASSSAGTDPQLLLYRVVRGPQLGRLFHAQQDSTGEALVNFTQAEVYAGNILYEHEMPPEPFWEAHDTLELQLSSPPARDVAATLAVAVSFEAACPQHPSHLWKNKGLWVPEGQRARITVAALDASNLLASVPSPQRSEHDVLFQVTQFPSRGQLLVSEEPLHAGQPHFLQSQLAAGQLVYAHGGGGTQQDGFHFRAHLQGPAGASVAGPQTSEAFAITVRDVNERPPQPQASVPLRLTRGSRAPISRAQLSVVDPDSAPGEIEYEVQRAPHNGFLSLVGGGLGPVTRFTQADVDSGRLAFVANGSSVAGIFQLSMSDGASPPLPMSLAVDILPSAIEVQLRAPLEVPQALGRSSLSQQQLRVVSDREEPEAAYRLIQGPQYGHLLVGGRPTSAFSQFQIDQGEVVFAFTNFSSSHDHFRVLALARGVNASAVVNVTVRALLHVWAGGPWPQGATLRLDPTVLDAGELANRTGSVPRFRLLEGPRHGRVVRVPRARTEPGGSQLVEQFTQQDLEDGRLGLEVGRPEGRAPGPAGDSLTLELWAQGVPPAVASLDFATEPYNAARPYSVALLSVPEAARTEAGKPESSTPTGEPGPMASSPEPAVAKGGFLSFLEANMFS
Test: SPR (ProteOn XPR36), IgG KD against parental M4-3/ML2
Method: Briefly, carboxymethylated dextran biosensor chips (CM5, GE Healthcare) were activated with N-ethyl-N′-(3-dimethylaminopropyl)-carbodiimide hydrochloride (EDC) and N-hydroxysuccinimide (NHS) according to the supplier's instructions. […] Association rates (kon) and dissociation rates (koff) were calculated using a simple one-to-one Langmuir binding model (ProteOn XPR36 Evaluation Software or Scrubber software (BioLogic)) by simultaneously fitting the association and dissociation sensorgrams. […]
outcome measure: Comparative binding affinity - Fold increase over parent (fold)

[
  {
    "binder": "M4-3/ML2 (E10/G3) (IgG) (antibody, V domains shown, Human IgG1 format) VH: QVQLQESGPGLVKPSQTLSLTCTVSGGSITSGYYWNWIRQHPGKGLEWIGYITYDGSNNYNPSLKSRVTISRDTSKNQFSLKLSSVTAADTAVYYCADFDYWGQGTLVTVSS VL: DIQMTQSPSSLSASVGDRVTITCRASYGIRGYLNWYQQKPGKAPKLLIYYTSSLHSGVPSRFSGSGSGTDFTLTISSLQPEDFATYHCQQYSALPWTFGQGTKVEIK",
    "result": 5
  },
  {
    "binder": "M4-3(A7)/ML2(E10) (IgG) (antibody, V domains shown, Human IgG1 format) VH: QVQLQESGPGLVKPSQTLSLTCTVSGGSITDGYYWNWIRQHPGKGLEWIGYITFDGRNNYNPSLKSRVTISRDTSKNQFSLKLSSVTAADTAVYYCADFDYWGQGTLVTVSS VL: DIQMTQSPSSLSASVGDRVTITCRASYGIRGYLNWYQQKPGKAPKLLIYYTSSLHSGVPSRFSGSGSGTDFTLTISSLQPEDFATYHCQQYSKLPWTFGQGTKVEIK",
    "result": 6.7
  },
  {
    "binder": "M4-3(D6)/ML2 (IgG) (antibody, V domains shown, Human IgG1 format) VH: QVQLQESGPGLVKPSQTLSLTCTVSGGSITSGYYWNWIRQHPGKGLEWIGYITFDGKNNYNPSLKSRVTISRDTSKNQFSLKLSSVTAADTAVYYCADFDYWGQGTLVTVSS VL: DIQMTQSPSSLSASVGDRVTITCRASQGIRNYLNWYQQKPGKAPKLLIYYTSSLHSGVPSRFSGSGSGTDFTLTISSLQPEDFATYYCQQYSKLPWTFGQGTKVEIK",
    "result": 5
  }
]
